Recorded values, source patent US20260109761A1.

system: T1, huZIP12-ECD-GST (human, UniProt Q504Y0 24-202)
T1 construct: also called hZIP12-ECD-GST; human ZIP12-ECD-GST; not shown: glutathione S-transferase (GST) tag
T1 sequence (Q504Y0 24-202): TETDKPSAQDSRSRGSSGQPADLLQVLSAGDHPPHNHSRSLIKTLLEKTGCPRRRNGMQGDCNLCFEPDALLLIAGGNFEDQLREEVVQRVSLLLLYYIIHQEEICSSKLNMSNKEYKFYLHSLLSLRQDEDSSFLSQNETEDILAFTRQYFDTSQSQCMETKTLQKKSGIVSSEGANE
assay-comment: SPR single cycle kinetics (Biacore): mAb captured on protein A, huZIP12-ECD-GST injected at 2.34-600 nM, extended dissociation
Listing of recorded kon by entry.

{"binder": "H2_T63Y_VL-par (antibody, V domains shown, Fc null human IgG1 / human kappa) VH: QVQLVESGGGVVQPGRSLRLSCAASGFTFSDYGMHWVRQAPGKGLEWVAYISSGGTTIYYADYVKGRFTISRDNSKNTLYLQMNSLRAEDTAVYYCARWTNLYAMDYWGQGTTVTVSS VL: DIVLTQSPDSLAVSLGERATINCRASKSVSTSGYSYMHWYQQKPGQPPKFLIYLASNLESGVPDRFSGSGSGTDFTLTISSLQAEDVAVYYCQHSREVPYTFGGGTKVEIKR", "kon": "28900 M⁻¹ s⁻¹"}
{"binder": "51B12 parent (antibody, V domains shown, Fc null human IgG1 / human kappa) VH: QVQLVESGGGVVQPGRSLRLSCAASGFTFSDYGMHWVRQAPGKGLEWVAYISSGGTTIYYADTVKGRFTISRDNSKNTLYLQMNSLRAEDTAVYYCARWTNLYAMDYWGQGTTVTVSS VL: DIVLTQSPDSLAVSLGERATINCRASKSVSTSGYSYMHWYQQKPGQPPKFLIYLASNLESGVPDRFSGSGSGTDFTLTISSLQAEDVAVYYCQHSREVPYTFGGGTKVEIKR", "kon": "27500 M⁻¹ s⁻¹"}
